Molecular target: T1, cynomolgus monkey HVEM (cynomolgus monkey, UniProt A0A2K5W0R1 39-203); also: test concentration or dose not given here
T1 sequence: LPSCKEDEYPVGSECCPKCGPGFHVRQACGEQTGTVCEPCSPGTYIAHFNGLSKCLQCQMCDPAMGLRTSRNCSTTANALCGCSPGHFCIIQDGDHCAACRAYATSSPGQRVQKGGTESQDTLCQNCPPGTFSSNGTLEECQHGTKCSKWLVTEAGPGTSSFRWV
Experiment: ELISA
Entries and their ELISA signal values follow.
measurement.label: ELISA signal

binder: Ab_004 (H5S14-24A4A) (antibody, V domains shown, also called Ab_4) VH: EVQLQQSGPELVKPGTSVKISCKTSGYTITEYTMHWVKQSHGKSLEWIGGINPNNGGTINNQKFKDKATLTVDMSSSTAYMELRSLTSEDSAVYYCAGSVVDRYWYFDVWGAGTTVTVSS VL: QIVLTQSPAIMSASPGEKVTISCSASSSVSYMYWYQQKPGSSPKPWIYRTSNLASGVPARFSGSGSGTSYSLTISSMEAEDAATYYCQQYHSYPLTFGAGTKLELK
measurement.label: ELISA signal
recorded.measurement: 0.062
--
binder: Ab_049 (H5S19-25A24A) (antibody, V domains shown, also called Ab_49) VH: QVQLQQSGAELMKPGASVKISCKATGYTFSSYWIEWVKQRPGHGLEWIGEILPGSGSTNYNEKFKGKATFTADTSSNTAYMQLSSLTSEDSAVYYCARYPRWGKIDYWGQGTTLTVSS VL: DIVMTQAAFSNPVTLGTSASISCRSSKSLLHSNGITYLYWYLQKPGQSPQLLIYQMSNLASGVPDRFSSSGSGTDFTLRISRVEAEDVGVYYCAQNLELPYTFGGGTKLEIK
measurement.label: ELISA signal
recorded.measurement: 0.065
